assay: Clearance in Sprague-Dawley rat at 2.5 mg/kg, iv; assay type: ADME, organism-based; design: dose 2.5 mg/kg, route intravenous; conditions: in vivo
Measurement Kind: clearance (mL/min/kg)
One number for each entry, in mL/min/kg.

> print(dat)
                                        smi  value
1  CC(C)Cn1ccc(N2CCC(c3ccccc3)CC2)c(Cl)c1=O     13
2    CCCCn1ccc(N2CCC(c3ccccc3)CC2)c(Cl)c1=O     23
3  O=c1c(Cl)c(N2CCC(c3ccccc3)CC2)ccn1CC1CC1     24

# context switch: different molecule, same clearance
For N#Cc1c(N2CCC(c3ccccc3)CC2)ccn(CC2CC2)c1=O , what is its reported clearance?
18

---

test: Metabolic stability in rat liver microsomes assessed as compound metabolized at 5 uM after 15 mins by MS/MS analysis in presence of NADPH; assay type: ADME; details: read-out: Drug metabolism
Measurement Kind: metabolised at 0.25 h, 5 µM (%)
Answers are plain numbers, in %.

> print(dat)
                                        smi  value
1  CC(C)CCn1ccc(N2CCC(c3ccccc3)CC2)c(C#N)c1=O     97
2   CCCCn1ccc(N2CCC(c3ccccc3)CC2)c(C#N)c1=O     62
3  N#Cc1c(N2CCC(c3c(F)cccc3F)CC2)ccn(CC2CC2)c1=O     42
4          CC(C)CCn1ccc(N2CCCCC2)c(C#N)c1=O    100
5  N#Cc1c(N2CCC(c3ccccc3)CC2)ccn(CC2CC2)c1=O     44
6        CC(C)CCn1ccc(CCc2ccccc2)c(C#N)c1=O     99
7        CC(C)CCn1ccc(OCc2ccccc2)c(C#N)c1=O     90
8  N#Cc1c(N2CCC(c3ccc(F)cc3)CC2)ccn(CC2CC2)c1=O     36

Please report metabolised at 0.25 h, 5 µM for every entry that follows.
1. COc1ccc(C2CCN(c3ccn(CC4CC4)c(=O)c3C#N)CC2)cc1
2. N#Cc1c(N2CCC(c3cccc(F)c3)CC2)ccn(CC2CC2)c1=O
3. CC(C)Cn1ccc(N2CCC(c3ccccc3)CC2)c(C#N)c1=O

1: 57; 2: 37; 3: 47

Please report metabolised at 0.25 h, 5 µM for every entry that follows.
1. N#Cc1c(N2CCC(c3ccccc3)CC2)ccn(CCC2CC2)c1=O
2. CCCCn1ccc(N2CCC(c3ccccc3)CC2)c(Cl)c1=O
3. N#Cc1c(N2CCC(c3ccc(Cl)cc3)CC2)ccn(CC2CC2)c1=O
4. N#Cc1c(N2CCC(c3ccccc3F)CC2)ccn(CC2CC2)c1=O
5. N#Cc1c(N2CCC(c3ccccc3)CC2)ccn(CCCC(F)(F)F)c1=O
6. CC(C)CCn1ccc(N2CCN(c3ccccn3)CC2)c(C#N)c1=O

[61, 53, 21, 42, 43, 54]

---

molecular target: hERG (KCNH2) (Homo sapiens, UniProt Q12809); experiment: Inhibition of human ERG channel transfected in HEK293 cells at 3 uM by patch clamp technique; assay type: cell-based; details: HEK293 cells transfected with human ERG channel
Sequence (Q12809 whole entry): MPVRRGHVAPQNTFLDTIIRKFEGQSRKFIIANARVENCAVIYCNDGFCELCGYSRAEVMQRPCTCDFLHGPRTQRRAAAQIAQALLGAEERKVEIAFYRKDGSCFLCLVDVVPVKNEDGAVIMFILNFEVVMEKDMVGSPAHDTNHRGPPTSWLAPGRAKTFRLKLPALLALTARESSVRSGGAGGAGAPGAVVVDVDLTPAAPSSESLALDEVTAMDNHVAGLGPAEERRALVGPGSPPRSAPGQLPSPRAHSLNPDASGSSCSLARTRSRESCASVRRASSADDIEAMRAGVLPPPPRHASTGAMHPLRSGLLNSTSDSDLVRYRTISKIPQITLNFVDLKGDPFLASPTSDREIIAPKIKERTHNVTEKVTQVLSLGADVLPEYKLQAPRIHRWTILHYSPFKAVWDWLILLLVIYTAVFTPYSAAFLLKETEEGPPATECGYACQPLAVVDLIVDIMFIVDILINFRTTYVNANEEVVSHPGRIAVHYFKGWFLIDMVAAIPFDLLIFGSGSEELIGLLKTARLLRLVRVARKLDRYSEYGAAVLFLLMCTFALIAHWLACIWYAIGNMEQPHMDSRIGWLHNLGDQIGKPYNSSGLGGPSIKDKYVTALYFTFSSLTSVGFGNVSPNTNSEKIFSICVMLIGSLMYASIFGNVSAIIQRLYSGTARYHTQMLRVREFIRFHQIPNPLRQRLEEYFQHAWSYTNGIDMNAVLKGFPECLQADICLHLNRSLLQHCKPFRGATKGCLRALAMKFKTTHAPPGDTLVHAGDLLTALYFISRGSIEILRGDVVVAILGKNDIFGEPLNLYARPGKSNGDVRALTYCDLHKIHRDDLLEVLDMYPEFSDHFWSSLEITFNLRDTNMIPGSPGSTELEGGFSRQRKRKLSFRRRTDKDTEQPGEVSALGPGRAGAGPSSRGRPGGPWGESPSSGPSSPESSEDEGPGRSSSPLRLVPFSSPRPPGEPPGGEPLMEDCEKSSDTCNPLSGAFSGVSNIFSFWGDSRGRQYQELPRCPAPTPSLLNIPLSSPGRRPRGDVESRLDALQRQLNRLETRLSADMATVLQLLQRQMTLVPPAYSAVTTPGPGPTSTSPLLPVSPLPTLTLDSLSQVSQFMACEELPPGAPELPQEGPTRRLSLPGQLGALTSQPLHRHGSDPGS
Exercise: state measured inhibition at 3 µM for each of the compounds provided.
Give bare numbers, in %.

Field: example entries. Status: answers known.
> print(dat)
                                        smi  value
1  N#Cc1c(N2CCC(c3cc(F)cc(F)c3)CC2)ccn(CC2CC2)c1=O     95
2  N#Cc1c(N2CCC(c3c(F)cccc3F)CC2)ccn(CC2CC2)c1=O     86
3  N#Cc1c(N2CCC(c3ccccc3F)CC2)ccn(CC2CC2)c1=O     75
4  CC(C)Cn1ccc(N2CCC(c3ccccc3)CC2)c(Cl)c1=O     24
5  N#Cc1c(N2CCC(c3ccccc3)CC2)ccn(CC2CC2)c1=O     58
6  O=c1c(Cl)c(N2CCC(c3ccccc3)CC2)ccn1CC1CC1     51

Please report inhibition at 3 µM for every entry that follows.
1. N#Cc1c(N2CCC(c3cccc(C(F)(F)F)c3)CC2)ccn(CC2CC2)c1=O
2. N#Cc1c(N2CCC(c3ccc(F)cc3)CC2)ccn(CC2CC2)c1=O
3. N#Cc1c(N2CCC(c3cccc(F)c3)CC2)ccn(CC2CC2)c1=O
4. COc1ccccc1C1CCN(c2ccn(CC3CC3)c(=O)c2C#N)CC1

1. 97
2. 89
3. 87
4. 65
